- System: HCVpp (HCV E1/E2, isolate Con1) entry into Hep3B2.1-7 cells
- Assay info: microbe, parasite or virus in culture
- Assay type: cell-based
- Test parameters: Hepatitis C virus, 72 h, read-out: EC50 (nM) (Ex. 58)
Recorded EC50, one value per entry.
Kindly answer with a numeric value in nM, unit omitted.

Would you please look over these solved cases?
COC(=O)c1ccc2[nH]c3c(c2c1)C(C)(C)CC(C)(C)C3=O ... 195
CC1(C)CC(C)(C)c2c([nH]c3ccc(C(=O)NC4CCN(C(=O)c5ccccn5)C4)cc23)C1=O (stereo not shown) ... 36
CC1(C)CC(C)(C)c2c([nH]c3ccc(C(=O)Nc4cnccn4)cc23)C1=O ... 88

Query (compound): CC1CC(C)(C)c2c([nH]c3ccc(C(=O)NC4CCS(=O)(=O)C4)cc23)C1=O (stereo not shown) ; field requested: EC50
187

====

- System: HCVpp (HCV E1/E2, isolate Con1) entry into Hep3B2.1-7 cells
- Assay info: microbe, parasite or virus in culture
- Assay type: cell-based
- Test parameters: Hepatitis C virus, 72 h, read-out: EC50 (nM) (Ex. 58)
Returns: string. Value is 1 if measured EC50 is below 100 nM, and 0 if it is greater than or equal to it.

CC1(C)CC(C)(C)c2c([nH]c3ccc(C(=O)NC4CCN(S(C)(=O)=O)C4)cc23)C1=O (stereo not shown) [Compound 2058] ... 1
Cn1cncc1CNC(=O)CNC(=O)c1ccc2[nH]c3c(c2c1)C(C)(C)CC(C)(C)C3=O [Compound 7010] ... 0
CC1(C)CC(C)(C)c2c([nH]c3ccc(C(=O)NC4CCN(CCF)C4)cc23)C1=O (stereo not shown) [Compound 2003] ... 0
CC1(C)CC2(CCC2)c2c([nH]c3ccc(C(=O)NC4CCN(C(=O)c5nc[nH]n5)C4)cc23)C1=O (stereo not shown) [Compound 6016] ... 1
CC1(C)CC(C)(C)c2c([nH]c3ccc(C(=O)NC4CCS(=O)(=O)CC4)cc23)C1=O [Compound 7008] ... 0

Attention now turns to another entry.
Find out if reported EC50 for CC1(C)CC(C)(C)c2c([nH]c3ccc(-c4nnc(NC5CCS(=O)(=O)C5)o4)cc23)C1=O (stereo not shown) [Compound 1103] is less than 100 nM
1

====

- Test system: HCVpp (HCV E1/E2, isolate Con1) entry into Hep3B2.1-7 cells
- Assay info: microbe, parasite or virus in culture
- Format: cell-based
- Test parameters: Hepatitis C virus, 72 h, read-out: EC50 (nM) (Ex. 58)
Returns: string. Value is yes if measured EC50 is below 80 nM, and no if it is greater than or equal to it.

Before answering, review these 2 worked examples.
CC1(C)CC(C)(C)c2c([nH]c3cnc(C(=O)NCc4ccccn4)cc23)C1=O [Compound 9004] ... no
O=C(NC1CCS(=O)(=O)C1)c1ccc2[nH]c3c(c2c1)C1(CCCC3=O)CC1 (stereo not shown) [Compound 1104] ... no

Find out if reported EC50 for CC1(C)CC2(CC2)c2c([nH]c3ccc(C(=O)NCCCn4cncn4)cc23)C1=O [Compound 6001] is less than 80 nM
yes

CC1(C)CC2(CCOCC2)C(=O)c2[nH]c3ccc(C(=O)NC4CCS(=O)(=O)C4)cc3c21 (stereo not shown) [Compound 5003] , same question.
no

COCC1(C)CC(C)(C)c2c([nH]c3ccc(C(=O)NC4CCN(C(=O)c5n[nH]c(N)n5)C4)cc23)C1=O (stereo not shown) [Compound 5017] , same question.
yes

CC1(C)CC2(CC2)C(=O)c2[nH]c3ccc(C(=O)NC4CCN(C(=O)c5nc[nH]n5)C4)cc3c21 (stereo not shown) [Compound 5008] , same question.
yes
